Examples of compounds with documented cell viability follow.
# System: MOLM1 and UCSD/AML1 (averaged)
# PROTOCOL DESCRIPTION: cell viability relative to DMSO control (POC); higher = less growth inhibition
# REPORTED CONDITIONS: 1 µM; 72 h
In all, about 2,100 compounds went through this assay and about 180 (8.6%) showed an effect of 50% or more. The full list was thinned out, with strong results kept by preference.
METRIC NAME: cell viability (%)

[[record]]
compound = "CN1CCN(CCOc2cc(OC3CCOCC3)c3c(Nc4c(Cl)ccc5c4OCO5)ncnc3c2)CC1"
recorded_result = 47.7

[[record]]
compound = "CC(=O)Oc1cc(OC(C)=O)c2c(c1)O[C@H](c1ccc(OC(C)=O)c(OC(C)=O)c1)[C@@H](OC(C)=O)C2"
recorded_result = 96.7

[[record]]
compound = "CC1(C)CC2C1CC[C@]1(C)CCC3C(C(=O)O)CC(=O)O[C@@]32C1 (stereo not given in full) [3-HYDROXY-4-(SUCCIN-2-YL)-CARYOLANE delta-LACTONE]"
recorded_result = 103

[[record]]
compound = "CC(=O)O[C@@H]1C[C@H]2C(C)(C)C(=O)C=C[C@]2(C)[C@H]2CC[C@@]3(C)[C@H](c4ccoc4)OC(=O)[C@H]4O[C@]43[C@@]21C"
recorded_result = 82.8

[[record]]
compound = "CC(C)CCCC(C)C1CCC2C3=CCC4CC(O)CCC4(C)C3CCC21C (stereo not given)"
recorded_result = 93

[[record]]
compound = "COC(=O)[C@@H]1OC(=O)C2OC23[C@@]1(C)CCC1[C@]2(C)C(C[C@@H](O)[C@]13C)C(C)(C)[C@H](OC(C)=O)C[C@@H]2OC(C)=O (stereo not given in full)"
recorded_result = 111

[[record]]
compound = "CC(C)[C@@H]1CC[C@@H](C)CC1=O"
recorded_result = 102

[[record]]
compound = "COc1cccc2c1C(=O)c1c(O)c3c(c(O)c1C2=O)C[C@@](O)(C(=O)CO)C[C@@H]3O[C@H]1C[C@H](N)[C@H](O)[C@H](C)O1"
recorded_result = 1.67

[[record]]
compound = "CCCCOc1ccc(CC(=O)NO)cc1"
recorded_result = 115

[[record]]
compound = "O=C(O)C(=O)O.[NH-]C1CCCCC1[NH-].[Pt+2] (stereo not given) [Oxaliplatin (Eloxatin)]"
recorded_result = 41.3

